Provide the reported IC50 of each item.
- Tested on: Human Pancreatic Cancer Cell Line Panc1
- Protocol: Cell death assay (propidium iodide/Hoechst) in Panc1 cells with or without camptothecin
- Type: cell-based
- Particulars: with 3 uM Camptothecin, 72 hours, % cell death by propidium iodide/Hoechst, read-out: Panc1 + Cpt IC50

Query: Fill in reported IC50 for this entry: CC(O)C1C(CO)ON(Cc2cccc(CN(CCN(C)C)Cc3cccc(-c4ccccc4)c3)c2)C1C(=O)NC1CC2CC(C1C)C2(C)C (centres unmarked)
Response: > 2.5 µM

Query: Fill in reported IC50 for this entry: COc1c(CN2O[C@@H](CO)[C@@H]([C@H](C)O)[C@H]2C(=O)N[C@H]2C[C@H]3C[C@@H]([C@@H]2C)C3(C)C)cccc1-c1cccc(C(=O)N[C@@H](CN(C)C)C(C)C)c1
Response: > 2.5 µM

Query: Fill in reported IC50 for this entry: CCOc1c(CN2O[C@@H](CO)[C@@H]([C@H](C)O)[C@H]2C(=O)N[C@H]2C[C@H]3C[C@@H]([C@@H]2C)C3(C)C)cccc1-c1cccc(C(=O)NCCN(C)C)c1
Response: > 2.5 µM

Query: Fill in reported IC50 for this entry: CCC(C)C(CN(C)C)N(Cc1cccc(CN2OC(CO)C(C(C)O)C2C(=O)NC2CC3CC(C2C)C3(C)C)c1)Cc1ccccc1Br (centres unmarked)
Response: > 2.5 µM

Query: Fill in reported IC50 for this entry: CC(C)CC(CN(C)C)N(Cc1ccccc1)Cc1cccc(CN2OC(CO)C(C(C)O)C2C(=O)NC2CC3CC(C2C)C3(C)C)c1 (centres unmarked) [Compound 435]
Response: > 2.5 µM

Query: Fill in reported IC50 for this entry: COc1c(CN2O[C@@H](CO)[C@@H]([C@H](C)O)[C@H]2C(=O)N[C@H]2C[C@H]3C[C@@H]([C@@H]2C)C3(C)C)cccc1-c1cccc(C(=O)N[C@@H](CC2CCCCC2)CN(C)C)c1
Response: > 2.5 µM

Query: Fill in reported IC50 for this entry: CC(O)C1C(CO)ON(Cc2cccc(CN(CCN(C)C)Cc3nccs3)c2)C1C(=O)NC1CC2CC(C1C)C2(C)C (centres unmarked)
Response: > 2.5 µM

Query: Fill in reported IC50 for this entry: CC(O)C1C(CO)ON(Cc2cccc(CN(CCN3CCCC3)CC3CCCCC3)c2)C1C(=O)NC1CC2CC(C1C)C2(C)C (centres unmarked)
Response: > 2.5 µM

Query: Fill in reported IC50 for this entry: Cc1cccc(C)c1CN(Cc1cccc(CN2OC(CO)C(C(C)O)C2C(=O)NC2CC3CC(C2C)C3(C)C)c1)C(CC(C)C)CN(C)C (centres unmarked)
Response: < 1.3 µM

Query: Fill in reported IC50 for this entry: CC(O)C1C(CO)ON(Cc2cccc(CN(C)C(CC3CCCCC3)CN(C)C)c2)C1C(=O)NC1CC2CC(C1C)C2(C)C (centres unmarked)
Response: > 2.5 µM

Query: Fill in reported IC50 for this entry: CC(O)C1C(CO)ON(Cc2cccc(CN(CCN(C)C)CC3CC3)c2)C1C(=O)NC1CC2CC(C1C)C2(C)C (centres unmarked)
Response: > 2.5 µM

Query: Fill in reported IC50 for this entry: COc1c(CN2O[C@@H](CO)[C@@H]([C@H](C)O)[C@H]2C(=O)N[C@H]2C[C@H]3C[C@@H]([C@@H]2C)C3(C)C)cccc1-c1cccc(C(=O)N[C@H](CN(C)C)CC(C)(C)C)c1
Response: 1.3 to 1.8 µM

Query: Fill in reported IC50 for this entry: CC(C)C[C@@H](CN(C)C)N(Cc1cccc(CN2O[C@@H](CO)C([C@H](C)O)[C@H]2C(=O)N[C@H]2C[C@H]3C[C@@H]([C@@H]2C)C3(C)C)c1)Cc1ccccc1O (some centres unmarked)
Response: 1.8 to 2.5 µM

Query: Fill in reported IC50 for this entry: CC(O)C1C(CO)ON(Cc2cccc(CNC(CN(C)C)CC(C)(C)C)c2)C1C(=O)NC1CC2CC(C1C)C2(C)C (centres unmarked)
Response: > 2.5 µM

Query: Fill in reported IC50 for this entry: CC(C)C[C@@H](CN(C)C)N(Cc1cccc(CN2O[C@@H](CO)C([C@H](C)O)[C@H]2C(=O)N[C@H]2C[C@H]3C[C@@H]([C@@H]2C)C3(C)C)c1)Cc1c(Cl)cccc1Cl (some centres unmarked)
Response: > 2.5 µM

Query: Fill in reported IC50 for this entry: CC(C)CC(CN(C)C)N(Cc1cccc(O)c1)Cc1cccc(CN2OC(CO)C(C(C)O)C2C(=O)NC2CC3CC(C2C)C3(C)C)c1 (centres unmarked)
Response: 1.8 to 2.5 µM

Query: Fill in reported IC50 for this entry: COc1c(CN2O[C@@H](CO)[C@@H]([C@H](C)O)[C@H]2C(=O)N[C@H]2C[C@H]3C[C@@H]([C@@H]2C)C3(C)C)cccc1-c1cccc(C(=O)N[C@H](CC(C)C)CN2CCCCCC2)c1
Response: 1.8 to 2.5 µM

Query: Fill in reported IC50 for this entry: COC(=O)CCNC(=O)c1cccc(-c2cccc(CN3O[C@@H](CO)[C@@H]([C@H](C)O)[C@H]3C(=O)N[C@H]3C[C@H]4C[C@@H]([C@@H]3C)C4(C)C)c2)c1
Response: 1.8 to 2.5 µM

Query: Fill in reported IC50 for this entry: CC(O)C1C(CO)ON(Cc2cccc(CN(CCN(C)C)Cc3ccc4ccccc4c3)c2)C1C(=O)NC1CC2CC(C1C)C2(C)C (centres unmarked)
Response: > 2.5 µM

Query: Fill in reported IC50 for this entry: CC(C)CC(CN(C)C)NC(=O)c1cccc(CN2OC(CO)C(C(C)O)C2C(=O)NC2CC3CC(C2C)C3(C)C)c1 (centres unmarked)
Response: > 2.5 µM

Query: Fill in reported IC50 for this entry: CC(O)C1C(CO)ON(Cc2cccc(CN(CCN(C)C)Cc3ccccc3Br)c2)C1C(=O)NC1CC2CC(C1C)C2(C)C (centres unmarked)
Response: > 2.5 µM

Query: Fill in reported IC50 for this entry: CC(O)C1C(CO)ON(Cc2cccc(CNC(CN(C)C)C3CCCCC3)c2)C1C(=O)NC1CC2CC(C1C)C2(C)C (centres unmarked)
Response: > 2.5 µM

Query: Fill in reported IC50 for this entry: CNC(=O)c1ccccc1-c1cccc(CN2O[C@@H](CO)[C@@H]([C@H](C)O)[C@H]2C(=O)N[C@H]2C[C@H]3C[C@@H]([C@@H]2C)C3(C)C)c1
Response: 1.3 to 1.8 µM

Data provenance: patent US7851637B2
